ASSAY SYSTEM: human TRPV4 (Homo sapiens, UniProt Q9HBA0)
Construct: expressed in transfected cells; host or cells: BHK/AC9 cells transduced with BacMam virus
Sequence (Q9HBA0 whole entry): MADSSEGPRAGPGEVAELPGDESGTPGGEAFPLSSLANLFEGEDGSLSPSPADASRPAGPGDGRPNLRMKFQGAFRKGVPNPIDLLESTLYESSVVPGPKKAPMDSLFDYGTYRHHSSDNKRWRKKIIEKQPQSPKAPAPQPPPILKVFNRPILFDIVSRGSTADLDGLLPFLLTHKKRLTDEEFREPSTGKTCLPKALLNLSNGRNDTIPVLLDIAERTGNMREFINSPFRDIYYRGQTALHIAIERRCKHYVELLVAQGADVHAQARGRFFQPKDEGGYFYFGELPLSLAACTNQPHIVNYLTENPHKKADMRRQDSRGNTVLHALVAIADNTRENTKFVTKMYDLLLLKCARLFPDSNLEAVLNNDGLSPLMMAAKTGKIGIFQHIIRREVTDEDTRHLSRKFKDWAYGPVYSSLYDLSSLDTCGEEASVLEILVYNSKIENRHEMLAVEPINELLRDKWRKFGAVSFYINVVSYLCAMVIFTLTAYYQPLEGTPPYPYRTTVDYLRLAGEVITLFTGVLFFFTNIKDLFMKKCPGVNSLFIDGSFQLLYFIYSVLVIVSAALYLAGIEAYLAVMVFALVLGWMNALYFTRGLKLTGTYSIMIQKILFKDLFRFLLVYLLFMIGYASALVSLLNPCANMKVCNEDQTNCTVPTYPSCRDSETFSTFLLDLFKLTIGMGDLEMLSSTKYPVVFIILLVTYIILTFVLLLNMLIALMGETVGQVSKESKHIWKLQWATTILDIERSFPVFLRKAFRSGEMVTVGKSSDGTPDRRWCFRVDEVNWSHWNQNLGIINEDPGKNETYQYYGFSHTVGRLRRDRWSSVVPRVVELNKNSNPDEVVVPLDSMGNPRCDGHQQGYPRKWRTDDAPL
PROTOCOL DESCRIPTION: FLIPR assay for hTRPV4 expressed in BHK cells: inhibition of Agonist Compound-induced calcium signal
Type: cell-based
CONDITION CONTEXT: hTRPV4 in BHK/AC9 cells, FLIPR calcium signal, agonist at EC80; reported as range class; read-out: IC50
Text: FLIPR Assay for hTRPV4 Expressed in BHK Cells: TRPV4 channel activation results in an influx of divalent and monovalent cations including calcium. The resulting changes in intracellular calcium were monitored using a calcium specific fluorescent dye Fluo-4 (MDS Analytical Technologies). […]
pIC50: −log10 of the molar value.

| COMPOUND | pIC50 |
| --- | --- |
| C[C@H](O)[C@]1(O)CN(S(=O)(=O)c2ccccc2C#N)C[C@@H]1Oc1ccc(C#N)c(F)c1 | 7.00 to 8.00 |
| C[C@H](O)[C@@]1(O)CN(S(=O)(=O)c2ccc(C(F)(F)F)cc2C#N)C[C@@H]1Oc1ccc(C#N)c(F)c1 | 7.00 to 8.00 |
| CC#Cc1cc(C#N)ccc1S(=O)(=O)N1C[C@H](Oc2ccc(C#N)c(F)c2)[C@](O)(CO)C1 | 7.00 to 8.00 |
| N#Cc1ccc(S(=O)(=O)N2C[C@H](Oc3cc(F)c(C#N)cc3F)[C@](O)(CO)C2)cn1 | 7.00 to 8.00 |
| N#Cc1ccc(O[C@H]2CN(S(=O)(=O)c3ccc(Cl)cc3C#N)C[C@]23CNC(=O)O3)cc1F | 8.00 to 10.00 |
| CCC[C@@H](O)[C@]1(O)CN(S(=O)(=O)c2ccc(Cl)cn2)C[C@@H]1Oc1ccc(C#N)c(F)c1 | 8.00 to 10.00 |
| COc1ccc(C#N)cc1O[C@H]1CN(S(=O)(=O)c2ccc(C(F)(F)F)cc2C#N)C[C@@]1(O)CO | 7.00 to 8.00 |
| N#Cc1cc(F)ccc1S(=O)(=O)N1C[C@H](Oc2ccc(C(F)(F)F)cc2)[C@@](O)(CO)C1 | 7.00 to 8.00 |
| N#Cc1ccc(O[C@H]2CN(S(=O)(=O)c3cccnc3C#N)C[C@@]2(O)CO)cc1F | 8.00 to 10.00 |
| N#Cc1cc(OCC(F)(F)F)c(O[C@H]2CN(S(=O)(=O)c3ccc(Cl)cn3)C[C@@]2(O)CO)cc1F | 8.00 to 10.00 |
| N#Cc1ccc(O[C@H]2CN(S(=O)(=O)c3ccc(C(F)(F)F)cc3C#N)C[C@@]2(O)CO)c(OCC(F)(F)F)c1 | 8.00 to 10.00 |
| N#Cc1ccc(O[C@H]2CN(S(=O)(=O)c3ccccc3Cl)C[C@@]2(O)CO)cc1F | 7.00 to 8.00 |
| N#Cc1ccc(O[C@H]2CN(S(=O)(=O)c3ccc(Cl)s3)C[C@@]2(O)CO)cc1F | 7.00 to 8.00 |
| Cn1ncc(Cl)c1S(=O)(=O)N1C[C@H](Oc2ccc(C#N)c(F)c2)[C@](O)(CO)C1 | 7.00 to 8.00 |
| N#Cc1cc(O)c(O[C@H]2CN(S(=O)(=O)c3ccc(C(F)(F)F)cc3C#N)C[C@@]2(O)CO)cc1F | 8.00 to 10.00 |
| COc1ccc(O[C@H]2CN(S(=O)(=O)c3ccc(C(F)(F)F)cc3C#N)C[C@@]2(O)CO)cc1 | 7.00 to 8.00 |
| N#Cc1ccc(O[C@H]2CN(S(=O)(=O)c3ccc(Cl)cc3Br)C[C@@]2(O)CO)cc1F | 8.00 to 10.00 |
| COc1cc(Cl)ccc1O[C@H]1CN(S(=O)(=O)c2ccc(C(F)(F)F)cc2C#N)C[C@@]1(O)CO | 7.00 to 8.00 |
| C[C@@H](O)[C@]1(O)CN(S(=O)(=O)c2ccc(OC(F)(F)F)cn2)C[C@@H]1Oc1ccc(C#N)c(F)c1 | 7.00 to 8.00 |
| N#Cc1ccc(O[C@H]2CN(S(=O)(=O)c3ccc(Cl)cc3Cl)C[C@@]2(O)CO)cc1F | 8.00 to 10.00 |
| N#Cc1ccc(O[C@H]2CN(S(=O)(=O)c3ccc(Cl)cc3C#N)C[C@@]2(O)CO)cc1F | 8.00 to 10.00 |
| COc1ccc(S(=O)(=O)N2C[C@H](Oc3ccc(C#N)c(F)c3)[C@](O)(CO)C2)c(Br)c1 | 7.00 to 8.00 |
| Cc1ccc(S(=O)(=O)N2C[C@H](Oc3ccc(C#N)c(F)c3)[C@](O)(CO)C2)c(C#N)c1 | 8.00 to 10.00 |
| N#Cc1cc(C(F)(F)F)ccc1S(=O)(=O)N1C[C@H](Oc2ccc(Cl)c(F)c2)[C@](O)(CO)C1 | 8.00 to 10.00 |
| N#Cc1cc(C(F)(F)F)ccc1S(=O)(=O)N1C[C@H](Oc2ccc(C(F)(F)F)c(F)c2)[C@](O)(CO)C1 | 8.00 to 10.00 |
| N#Cc1ccc(O[C@H]2CN(S(=O)(=O)c3ccc(Cl)cn3)C[C@@]2(O)CN)cc1 | 7.00 to 8.00 |
| CC(C)COc1cc(C#N)c(F)cc1O[C@H]1CN(S(=O)(=O)c2ccc(C(F)(F)F)cc2C#N)C[C@@]1(O)CO | 8.00 to 10.00 |
| N#Cc1ccc(O[C@H]2CN(S(=O)(=O)c3ccccc3C#N)C[C@@]2(O)CO)c(OCC(F)(F)F)c1 | 8.00 to 10.00 |
| N#Cc1ccc(O[C@H]2CN(S(=O)(=O)c3sc(Cl)nc3Cl)C[C@@]2(O)CO)cc1F | 7.00 to 8.00 |

====

ASSAY SYSTEM: human TRPV4 (Homo sapiens)
Construct: expressed in transfected cells; host or cells: BHK/AC9 cells transduced with BacMam virus
PROTOCOL DESCRIPTION: FLIPR assay for hTRPV4 expressed in BHK cells: inhibition of Agonist Compound-induced calcium signal
Type: cell-based
CONDITION CONTEXT: hTRPV4 in BHK/AC9 cells, FLIPR calcium signal, agonist at EC80; reported as range class; read-out: IC50
Each item that follows carries a reported IC50.
READOUT: IC50

| MOLECULE | MEASURED VALUE |
| --- | --- |
| N#Cc1ccc(O[C@H]2CN(S(=O)(=O)c3ccc(C(F)(F)F)cc3Cl)C[C@@]2(O)CO)cn1 [Example 74] | 10 to 100 nM |
| N#Cc1cc(C(F)(F)F)ccc1S(=O)(=O)N1C[C@H](Oc2ccc(F)cc2)[C@](O)(CO)C1 [Example 47] | 10 to 100 nM |
| N#Cc1ccc(O[C@H]2CN(S(=O)(=O)c3ccc(CC(F)(F)F)cc3)C[C@@]2(O)CO)cc1F [Example 111] | 10 to 100 nM |
| N#Cc1cc(C(F)(F)F)ccc1S(=O)(=O)N1C[C@H](Oc2ccc3nonc3c2)[C@](O)(CO)C1 [Example 7] | 0.1 to 10 nM |
| N#Cc1ccc(O[C@H]2CN(S(=O)(=O)c3ccc(C(F)F)cn3)C[C@@]2(O)CN)cc1F [Example 244] | 10 to 100 nM |
| N#Cc1ccc(O[C@H]2CN(S(=O)(=O)c3ccc(OC(F)(F)F)cc3Br)C[C@@]2(O)CO)cc1F [Example 65] | 0.1 to 10 nM |
| N#Cc1cc(C(F)(F)F)ccc1S(=O)(=O)N1C[C@H](Oc2ccc(F)c(F)c2)[C@](O)(CO)C1 [Example 25] | 0.1 to 10 nM |

====

Each item that follows carries a reported IC50.
ASSAY SYSTEM: human TRPV4 (Homo sapiens)
Construct: expressed in transfected cells; host or cells: BHK/AC9 cells transduced with BacMam virus
PROTOCOL DESCRIPTION: FLIPR assay for hTRPV4 expressed in BHK cells: inhibition of Agonist Compound-induced calcium signal
Type: cell-based
CONDITION CONTEXT: hTRPV4 in BHK/AC9 cells, FLIPR calcium signal, agonist at EC80; reported as range class; read-out: IC50
From the text: FLIPR Assay for hTRPV4 Expressed in BHK Cells: TRPV4 channel activation results in an influx of divalent and monovalent cations including calcium. The resulting changes in intracellular calcium were monitored using a calcium specific fluorescent dye Fluo-4 (MDS Analytical Technologies). […]
READOUT: IC50

| COMPOUND | READOUT | MEASURED VALUE |
| --- | --- | --- |
| N#Cc1ccc(O[C@H]2CN(S(=O)(=O)c3ccc(C(F)F)cc3)C[C@@]2(O)CO)cc1F | IC50 | 10 to 100 nM |
| C[C@@H](O)[C@]1(O)CN(S(=O)(=O)c2ccc(C(F)F)cn2)C[C@@H]1Oc1ccc(C#N)c(F)c1 | IC50 | 10 to 100 nM |
| N#Cc1ccc(O[C@H]2CN(S(=O)(=O)c3ccc(Cl)nc3Cl)C[C@@]2(O)CO)cc1F | IC50 | 0.1 to 10 nM |
| C[C@@H](N)[C@]1(O)CN(S(=O)(=O)c2ccc(Cl)cn2)C[C@@H]1Oc1ccc(C#N)c(F)c1 [Example 256, 2,2,2-trifluoroacetate] | IC50 | 10 to 100 nM |
| C[C@H](O)[C@]1(O)CN(S(=O)(=O)c2ccc(C(F)(F)F)cc2C#N)C[C@@H]1Oc1ccc(C#N)c(F)c1 | IC50 | 0.1 to 10 nM |
| N#Cc1ccc(O[C@H]2CN(S(=O)(=O)c3ccc(Cl)cc3Cl)C[C@@]2(O)CO)cn1 | IC50 | 10 to 100 nM |
| N#Cc1cc(C(F)(F)F)ccc1S(=O)(=O)N1C[C@H](Oc2cnc(C(F)(F)F)nc2)[C@](O)(CO)C1 | IC50 | 10 to 100 nM |
| N#Cc1ccc(O[C@H]2CN(S(=O)(=O)c3ccc(Cl)cn3)C[C@@]2(O)CO)cc1F | IC50 | 10 to 100 nM |
| Cc1nc(C(F)(F)F)ccc1S(=O)(=O)N1C[C@H](Oc2ccc(C#N)c(F)c2)[C@](O)(CO)C1 | IC50 | 10 to 100 nM |
| CCNC[C@]1(O)CN(S(=O)(=O)c2ccc(C(F)(F)F)cc2C#N)C[C@@H]1Oc1ccc(C#N)c(F)c1 | IC50 | 0.1 to 10 nM |
| Cc1ccc(S(=O)(=O)N2C[C@H](Oc3ccc(C#N)c(F)c3)[C@](O)(CO)C2)c(Cl)c1 | IC50 | 0.1 to 10 nM |
| N#Cc1ccc(O[C@H]2CN(S(=O)(=O)c3ccc(C#CC4CC4)nc3)C[C@@]2(O)CO)cc1F | IC50 | 10 to 100 nM |
| N#Cc1ccc(O[C@H]2CN(S(=O)(=O)c3ccc(Cl)cn3)C[C@@]2(O)CO)c2ccccc12 | IC50 | 10 to 100 nM |
| N#Cc1ccc(O[C@H]2CN(S(=O)(=O)c3ccc(C(F)(F)F)cn3)C[C@@]2(O)CO)cc1F | IC50 | 10 to 100 nM |
| Cc1ccc(S(=O)(=O)N2C[C@H](Oc3ccc(C#N)nc3)[C@](O)(CO)C2)c(Cl)c1 | IC50 | 10 to 100 nM |
